biological target: T1, Recombinant human CD137/His (human, UniProt Q07011 24-186); test: SPR (Biacore), antibody captured on anti-human Fc, human CD137/His as analyte, 1:1 fit
T1 construct: Analyte of the SPR assay; also called 4-1BB; TNFRSF9; not shown: His tag
# maps each entry to its koff
// units = s⁻¹; emit number, no label

anti-CD137 antibody MSC8 (antibody, V domains shown, Variant of D6 with the same light chain variable domain) VH: QMQLVQSGAEVKKPGASVKVSCKASGYNFGGYYMHWVRQAPGQGLEWMGWVNPKSGGTNYAQKFQGRVTITRDTSASTAYMELSSLRSEDTAVYYCAREGEAVGLDLDYWGQGTLVTVSS VL: SYELTQPPSVSVAPGKTARITCGGNNIGSKSVHWYQQKPGQAPVLVIYYDSDRPSGIPERFSGSNSGNTATLTISRVEAGDEADYYCQVWDSSSVVFGGGTQLTVL    0.0615

For the binder anti-CD137 antibody D6 (antibody, V domains shown, Fully human antibody, captured through anti-human Fc in SPR and detected with anti-human Lambda in ELISA) VH: QMQLVQSGAEVKKPGASVKVSCKASGYTFTGYYMHWVRQAPGQGLEWMGWINPNSGGTNYAQKFQGRVTITRDTSASTAYMELSSLRSEDTAVYYCAREGEAVGLDLDYWGQGTLVTVSS VL: SYELTQPPSVSVAPGKTARITCGGNNIGSKSVHWYQQKPGQAPVLVIYYDSDRPSGIPERFSGSNSGNTATLTISRVEAGDEADYYCQVWDSSSVVFGGGTQLTVL , give its reported koff.
0.0814

For the binder anti-CD137 antibody MSB7 (antibody, V domains shown, Variant of D6 with the same light chain variable domain) VH: QMQLVQSGAEVKKPGASVKVSCKASGYSFSGYYMHWVRQAPGQGLEWMGWVNPMSGGTNYAQKFQGRVTITRDTSASTAYMELSSLRSEDTAVYYCAREGMAMRLELDKWGQGTLVTVSS VL: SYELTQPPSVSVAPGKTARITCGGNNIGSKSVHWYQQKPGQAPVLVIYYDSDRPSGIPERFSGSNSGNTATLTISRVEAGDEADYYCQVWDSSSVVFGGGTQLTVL , give its reported koff.
0.00756

For the binder anti-CD137 antibody MSH1 (antibody, V domains shown, Variant of D6 with the same light chain variable domain) VH: QMQLVQSGAEVKKPGASVKVSCKASGYNFGGYYMHWVRQAPGQGLEWMGWVNPHSGGTNYAQKFQGRVTITRDTSASTAYMELSSLRSEDTAVYYCAREGEAWGLDLDLWGQGTLVTVSS VL: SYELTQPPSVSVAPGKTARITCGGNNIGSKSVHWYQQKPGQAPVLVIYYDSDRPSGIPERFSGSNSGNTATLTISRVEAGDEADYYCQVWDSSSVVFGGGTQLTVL , give its reported koff.
0.0324

For the binder anti-CD137 antibody MB12 (antibody, V domains shown, Variant of D6 with the same light chain variable domain) VH: QMQLVQSGAEVKKPGASVKVSCKASGYSLEGYYMHWVRQAPGQGLEWMGWINPNSGGTNYAQKFQGRVTITRDTSASTAYMELSSLRSEDTAVYYCAREGEAVGLDLDYWGQGTLVTVSS VL: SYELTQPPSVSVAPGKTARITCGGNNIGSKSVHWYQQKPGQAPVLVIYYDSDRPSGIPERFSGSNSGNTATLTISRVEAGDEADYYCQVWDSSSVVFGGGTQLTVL , give its reported koff.
0.0669

For the binder anti-CD137 antibody MB3 (antibody, V domains shown, Variant of D6 with the same light chain variable domain) VH: QMQLVQSGAEVKKPGASVKVSCKASGYQMRGYYMHWVRQAPGQGLEWMGWINPNSGGTNYAQKFQGRVTITRDTSASTAYMELSSLRSEDTAVYYCAREGEAVGLDLDYWGQGTLVTVSS VL: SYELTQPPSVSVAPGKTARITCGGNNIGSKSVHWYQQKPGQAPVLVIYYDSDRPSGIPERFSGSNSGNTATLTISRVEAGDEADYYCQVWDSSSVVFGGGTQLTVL , give its reported koff.
0.0678
